# Measured on: rat CB1 receptor (Rattus norvegicus)
# Construct: contains an open reading frame of 1419 base pairs which corresponds to a protein of 473 amino acids
# Sequence (P20272 whole entry): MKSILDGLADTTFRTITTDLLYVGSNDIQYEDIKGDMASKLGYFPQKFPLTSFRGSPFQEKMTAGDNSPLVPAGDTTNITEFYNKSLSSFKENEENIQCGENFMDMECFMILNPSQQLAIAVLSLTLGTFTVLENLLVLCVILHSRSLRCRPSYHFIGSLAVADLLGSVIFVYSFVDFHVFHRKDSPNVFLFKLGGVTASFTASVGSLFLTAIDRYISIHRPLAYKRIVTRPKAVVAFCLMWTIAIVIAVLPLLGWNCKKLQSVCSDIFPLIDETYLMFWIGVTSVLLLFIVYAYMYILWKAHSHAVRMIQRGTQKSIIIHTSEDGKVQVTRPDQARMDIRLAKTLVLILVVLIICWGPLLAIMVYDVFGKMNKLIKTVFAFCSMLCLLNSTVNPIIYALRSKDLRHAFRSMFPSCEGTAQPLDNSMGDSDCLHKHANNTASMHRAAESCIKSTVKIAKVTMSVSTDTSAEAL
# Measurement description: CB1 luciferase reporter gene test (CHOluc9 cells stably transfected with rat CB1)
# Measurement context: forskolin stimulated
Structures can show the parent of a compound that is named as a salt.
Attribute measured: IC50 (pM)
Write the answer as a number in pM, unit excluded.

Compound	IC50 [pM]
NCCCCCCC(=O)OC[C@@H]1Cc2cccc(Oc3cccc(OS(=O)(=O)CCCC(F)(F)F)c3)c2C1 [Example 6, hydrochloride]	850

Give the measured IC50 of CC(C)[C@H](N)C(=O)OC[C@@H]1Cc2cccc(Oc3cccc(OS(=O)(=O)CCCC(F)(F)F)c3)c2C1 [Example 8, hydrochloride] .
200

Give the measured IC50 of NCCC(=O)OC[C@@H]1Cc2cccc(Oc3cccc(OS(=O)(=O)CCCC(F)(F)F)c3)c2C1 [Example 7, hydrochloride] .
400

Give the measured IC50 of NCC(=O)OC[C@@H]1Cc2cccc(Oc3cccc(OS(=O)(=O)CCCC(F)(F)F)c3)c2C1 [Example 5, hydrochloride] .
110

Give the measured IC50 of "CC(C)(C)OC(=O)NCC(=O)OC[C@@H]1Cc2cccc(Oc3cccc(OS(=O)(=O)CCCC(F)(F)F)c3)c2C1" .
350

Give the measured IC50 of "CC(C)(C)OC(=O)NCCCCCCC(=O)OC[C@@H]1Cc2cccc(Oc3cccc(OS(=O)(=O)CCCC(F)(F)F)c3)c2C1" .
130

// data source = patent US6545050B1
